# targetOfAssay: recombinant human non-muscle myosin 2 NM2C (Homo sapiens)
# runDescription: actomyosin steady state ATPase measurement, NM2C
# Format: biochemical
# experimentalSetup: maximum value of inhibition of ATPase activity
Short version: % inhibition. complete NM2C at least 40% is Fulfilled, less is Not fulfilled.

Task: API: above_or_equal(metric=% inhibition. complete NM2C, cutoff=40%) for item O=C1c2ccsc2N=C2N(c3ccc(N4CCOCC4)cc3)CCC12O (centres unmarked)
Result: Not fulfilled

Task: API: above_or_equal(metric=% inhibition. complete NM2C, cutoff=40%) for item `N#Cc1ccc(N2CC[C@@]3(O)C(=O)c4ccsc4N=C23)cc1`
Result: Fulfilled

Task: API: above_or_equal(metric=% inhibition. complete NM2C, cutoff=40%) for item `O=C1c2ccsc2N=C2N(c3ccc(OC(F)(F)F)cc3)CC[C@@]12O`
Result: Fulfilled

Task: API: above_or_equal(metric=% inhibition. complete NM2C, cutoff=40%) for item `CC(=O)c1ccc(N2CC[C@@]3(O)C(=O)c4ccsc4N=C23)cc1`
Result: Not fulfilled

* * *

Would you kindly list IC50 for each of these molecules?
# targetOfAssay: isolated porcine cardiac ventricular myocardium (cardiac) (Sus scrofa, UniProt P79293)
# Construct: isolated porcine cardiac ventricular myocardium (cardiac); from tissue; host or cells: porcine cardiac ventricle
# Sequence (P79293 whole entry): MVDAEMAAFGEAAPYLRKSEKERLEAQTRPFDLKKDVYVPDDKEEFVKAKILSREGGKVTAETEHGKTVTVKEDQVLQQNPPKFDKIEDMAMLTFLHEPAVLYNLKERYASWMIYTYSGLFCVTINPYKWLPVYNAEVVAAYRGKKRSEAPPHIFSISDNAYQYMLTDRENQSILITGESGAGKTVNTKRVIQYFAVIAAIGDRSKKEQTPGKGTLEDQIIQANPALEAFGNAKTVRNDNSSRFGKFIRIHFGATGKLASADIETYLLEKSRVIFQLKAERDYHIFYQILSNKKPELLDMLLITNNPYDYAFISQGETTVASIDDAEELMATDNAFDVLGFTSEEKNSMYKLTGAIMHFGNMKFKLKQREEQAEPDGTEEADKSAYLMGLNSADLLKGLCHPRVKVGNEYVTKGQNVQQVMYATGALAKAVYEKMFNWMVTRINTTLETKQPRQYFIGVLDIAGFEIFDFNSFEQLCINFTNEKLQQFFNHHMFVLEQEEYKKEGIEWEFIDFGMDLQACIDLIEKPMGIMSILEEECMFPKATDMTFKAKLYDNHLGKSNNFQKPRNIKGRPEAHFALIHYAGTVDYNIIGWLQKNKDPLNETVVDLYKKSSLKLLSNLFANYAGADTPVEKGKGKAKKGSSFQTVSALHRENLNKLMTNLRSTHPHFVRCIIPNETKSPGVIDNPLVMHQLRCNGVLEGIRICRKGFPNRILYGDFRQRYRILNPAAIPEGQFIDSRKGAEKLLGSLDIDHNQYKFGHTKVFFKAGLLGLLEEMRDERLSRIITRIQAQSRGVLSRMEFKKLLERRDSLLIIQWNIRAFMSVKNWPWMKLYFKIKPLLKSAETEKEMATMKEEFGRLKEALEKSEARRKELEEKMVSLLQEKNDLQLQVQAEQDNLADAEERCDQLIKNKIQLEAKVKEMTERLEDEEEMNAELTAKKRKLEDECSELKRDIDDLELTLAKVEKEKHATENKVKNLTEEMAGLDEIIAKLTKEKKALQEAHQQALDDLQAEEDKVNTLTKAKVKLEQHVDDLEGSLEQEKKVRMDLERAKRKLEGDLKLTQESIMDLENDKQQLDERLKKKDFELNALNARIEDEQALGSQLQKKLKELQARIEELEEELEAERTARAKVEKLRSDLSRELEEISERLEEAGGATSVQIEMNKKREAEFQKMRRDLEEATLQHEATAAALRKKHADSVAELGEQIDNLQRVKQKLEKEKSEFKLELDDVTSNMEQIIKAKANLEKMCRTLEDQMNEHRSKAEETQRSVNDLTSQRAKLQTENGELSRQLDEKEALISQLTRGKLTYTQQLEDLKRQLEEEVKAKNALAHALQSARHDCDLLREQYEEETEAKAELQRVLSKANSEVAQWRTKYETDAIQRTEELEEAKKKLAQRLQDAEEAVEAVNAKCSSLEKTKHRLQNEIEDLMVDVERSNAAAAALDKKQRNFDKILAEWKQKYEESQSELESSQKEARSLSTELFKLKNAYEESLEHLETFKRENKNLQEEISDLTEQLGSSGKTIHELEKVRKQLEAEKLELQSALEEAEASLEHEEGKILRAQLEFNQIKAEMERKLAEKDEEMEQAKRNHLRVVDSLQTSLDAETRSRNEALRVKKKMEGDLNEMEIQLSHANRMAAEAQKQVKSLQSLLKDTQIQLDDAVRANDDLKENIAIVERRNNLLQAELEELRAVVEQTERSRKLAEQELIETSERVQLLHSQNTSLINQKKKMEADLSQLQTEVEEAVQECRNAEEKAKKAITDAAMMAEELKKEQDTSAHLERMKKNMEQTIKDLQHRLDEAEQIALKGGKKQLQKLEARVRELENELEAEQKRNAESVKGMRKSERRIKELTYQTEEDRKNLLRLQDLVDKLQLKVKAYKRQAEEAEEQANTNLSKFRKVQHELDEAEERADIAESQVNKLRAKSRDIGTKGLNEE
# runDescription: actomyosin steady state ATPase measurement, cardiac myosin
# Assay type: biochemical
# experimentalSetup: concentration required for semi-maximal inhibition of ATPase
Answers are plain numbers, in µM.

Completed entries (count: 5):
molecule	recordedMetric	resultUnits	valueReported
COc1ccc(N2CCC3(O)C(=O)c4cc(C)sc4N=C23)cn1 (stereo not drawn)	IC50	µM	1.9
Cc1cc2c(s1)N=C1N(c3ccc(CO)cc3)CCC1(O)C2=O (stereo not drawn)	IC50	µM	0.76
Cc1nsc2c1C(=O)C1(O)CCN(c3ccccc3)C1=N2 (stereo not drawn)	IC50	µM	10
Cc1cc2c(s1)N=C1N(c3ccc(N)cc3)CCC1(O)C2=O (stereo not drawn)	IC50	µM	0.9
O=C1c2ccsc2N=C2N(c3ccccc3)CCC12O (stereo not drawn)	IC50	µM	5.1

Required: IC50, one value per molecule below.
1. O=C1c2ccsc2N=C2N(c3ccc(CO)cc3)CC[C@@]12O
2. Nc1ccc(N2CC[C@@]3(O)C(=O)c4ccsc4N=C23)cc1

Result:
1. 2.4
2. 6

Required: IC50, one value per molecule below.
1. COc1ccc(N2CC[C@@]3(O)C(=O)c4ccsc4N=C23)cc1
2. N#Cc1ccc(N2CC[C@@]3(O)C(=O)c4ccsc4N=C23)cc1

Result:
1.3
1.8

* * *

# targetOfAssay: isolated porcine cardiac ventricular myocardium (cardiac) (Sus scrofa, UniProt P79293)
# Construct: isolated porcine cardiac ventricular myocardium (cardiac); from tissue; host or cells: porcine cardiac ventricle
# runDescription: actomyosin steady state ATPase measurement, cardiac myosin
# Type: biochemical
# experimentalSetup: read-out: % inhibition at 5 μM (or 10 μM if racemate) cardiac; 5 μM (10 μM if racemate); ATPase activity
Would you kindly list inhibition at 5 µM for each of these molecules?
Numbers only, in %.

Completed entries (count: 6):
molecule	recordedMetric	resultUnits	valueReported
Cc1cc2c(s1)N=C1N(c3ccc(CC#N)cc3)CCC1(O)C2=O (stereo not shown) [Compound 226]	inhibition at 5 µM	%	72
O=C1c2ccsc2N=C2N(c3ccccc3)CCC12O (stereo not shown) [Compound 180]	inhibition at 5 µM	%	42
O=C1c2ccncc2N=C2N(c3ccccc3)CCC12O (stereo not shown) [Compound 174]	inhibition at 5 µM	%	2
CC(=O)c1ccc(N2CC[C@@]3(O)C(=O)c4ccsc4N=C23)cc1 [Compound 214]	inhibition at 5 µM	%	30
Cc1cc2c(s1)N=C1N(c3cccs3)CCC1(O)C2=O (stereo not shown) [Compound 229]	inhibition at 5 µM	%	54
COc1ccc(N2CC[C@@]3(O)C(=O)c4ccsc4N=C23)cn1 [Compound 219]	inhibition at 5 µM	%	44

Required: inhibition at 5 µM, one value per molecule below.
1. CC(=O)c1ccc(N2CCC3(O)C(=O)c4ccncc4N=C23)cc1 (stereo not shown) [Compound 240]
2. O=C1c2ccsc2N=C2N(c3ccc(N4CCOCC4)cc3)CCC12O (stereo not shown) [Compound 188]
3. Cc1cc2c(s1)N=C1N(c3ccc(N(C)C)cc3)CCC1(O)C2=O (stereo not shown) [Compound 250]
4. Cc1cc2c(s1)N=C1N(c3ccc(C#N)cc3)CCC1(O)C2=O (stereo not shown) [Compound 224]

Result:
[13, 0, 26, 72]

* * *

# runDescription: tissue concentrations after intraperitoneal injection into a live rat
# Type: in vivo
# experimentalSetup: urine, ip, 6 mg i.p., 30 min, read-out: Concentration of compound 188 in tissue samples (μM) urine
recordedMetric: concentration at 30 min (µM)
One number for each entry, in µM.

Recorded concentration at 30 min (compound O=C1c2ccsc2N=C2N(c3ccc(N4CCOCC4)cc3)CCC12O (stereo not shown) ): 72

* * *

# runDescription: tissue concentrations after intraperitoneal injection into a live rat
# Format: in vivo
# experimentalSetup: spleen, ip, 6 mg i.p., 30 min, read-out: Concentration of compound 188 in tissue samples (μM) spleen
recordedMetric: concentration at 30 min (µM)
Numbers only, in µM.

Recorded concentration at 30 min (molecule O=C1c2ccsc2N=C2N(c3ccc(N4CCOCC4)cc3)CCC12O (stereo not shown) [Compound 188] ): 11

* * *

# runDescription: tissue concentrations after intraperitoneal injection into a live rat
# Format: in vivo
# experimentalSetup: liver, ip, 6 mg i.p., 45 min, read-out: Concentration of compound 188 in tissue samples (μM) liver
recordedMetric: concentration at 45 min (µM)
Give bare numbers, in µM.

Recorded concentration at 45 min (compound O=C1c2ccsc2N=C2N(c3ccc(N4CCOCC4)cc3)CCC12O (stereo not shown) ): 9

* * *

Would you kindly list % inhibition at 50 μM (or 100 μM if racemate) Smooth for each of these compounds?
# targetOfAssay: isolated smooth muscle myosin (UniProt P10587)
# Assay type: biochemical, chamois
# experimentalSetup: 50 μM (100 μM if racemate); ATPase activity
Give bare numbers, in %.

Completed entries (count: 4):
compound	valueReported
O=C1c2ccsc2N=C2N(c3ccc(N4CCOCC4)cc3)CCC12O (stereo not drawn) [Compound 188]	11
O=C1c2cccnc2N=C2N(c3ccccc3)CCC12O (stereo not drawn) [Compound 189]	7
COc1ccc(N2CC[C@@]3(O)C(=O)c4ccsc4N=C23)cc1 [Compound 211]	74
Cc1cc2c(s1)N=C1N(c3ccc(OC(F)(F)F)cc3)CCC1(O)C2=O (stereo not drawn) [Compound 223]	99

Required: % inhibition at 50 μM (or 100 μM if racemate) Smooth, one value per compound below.
1. Nc1ccc(N2CC[C@@]3(O)C(=O)c4ccsc4N=C23)cc1 [Compound 210]
2. O=C1c2ccsc2N=C2N(c3ccccc3)CCC12O (stereo not drawn) [Compound 180]
3. Cc1ccc(N2CCC3(O)C(=O)c4cc(C)sc4N=C23)cc1 (stereo not drawn) [Compound 235]
4. O=C1c2ccsc2N=C2NCC[C@@]12O [Compound 207]

Result:
[28, 38, 79, 6]

Recorded % inhibition at 50 μM (or 100 μM if racemate) Smooth (compound CC(=O)c1ccc(N2CCC3(O)C(=O)c4cc(C)sc4N=C23)cc1 (stereo not drawn) [Compound 225] ): 96

* * *

# runDescription: tissue concentrations after intraperitoneal injection into a live rat
# Format: in vivo
# experimentalSetup: liver, ip, 6 mg i.p., 30 min, read-out: Concentration of compound 188 in tissue samples (μM) liver
recordedMetric: concentration at 30 min (µM)
One number for each entry, in µM.

Recorded concentration at 30 min (molecule O=C1c2ccsc2N=C2N(c3ccc(N4CCOCC4)cc3)CCC12O (stereo not shown) [Compound 188] ): 12

* * *

# targetOfAssay: recombinant human non-muscle myosin 2 NM2A (Homo sapiens, UniProt P35579)
# Sequence (P35579 whole entry): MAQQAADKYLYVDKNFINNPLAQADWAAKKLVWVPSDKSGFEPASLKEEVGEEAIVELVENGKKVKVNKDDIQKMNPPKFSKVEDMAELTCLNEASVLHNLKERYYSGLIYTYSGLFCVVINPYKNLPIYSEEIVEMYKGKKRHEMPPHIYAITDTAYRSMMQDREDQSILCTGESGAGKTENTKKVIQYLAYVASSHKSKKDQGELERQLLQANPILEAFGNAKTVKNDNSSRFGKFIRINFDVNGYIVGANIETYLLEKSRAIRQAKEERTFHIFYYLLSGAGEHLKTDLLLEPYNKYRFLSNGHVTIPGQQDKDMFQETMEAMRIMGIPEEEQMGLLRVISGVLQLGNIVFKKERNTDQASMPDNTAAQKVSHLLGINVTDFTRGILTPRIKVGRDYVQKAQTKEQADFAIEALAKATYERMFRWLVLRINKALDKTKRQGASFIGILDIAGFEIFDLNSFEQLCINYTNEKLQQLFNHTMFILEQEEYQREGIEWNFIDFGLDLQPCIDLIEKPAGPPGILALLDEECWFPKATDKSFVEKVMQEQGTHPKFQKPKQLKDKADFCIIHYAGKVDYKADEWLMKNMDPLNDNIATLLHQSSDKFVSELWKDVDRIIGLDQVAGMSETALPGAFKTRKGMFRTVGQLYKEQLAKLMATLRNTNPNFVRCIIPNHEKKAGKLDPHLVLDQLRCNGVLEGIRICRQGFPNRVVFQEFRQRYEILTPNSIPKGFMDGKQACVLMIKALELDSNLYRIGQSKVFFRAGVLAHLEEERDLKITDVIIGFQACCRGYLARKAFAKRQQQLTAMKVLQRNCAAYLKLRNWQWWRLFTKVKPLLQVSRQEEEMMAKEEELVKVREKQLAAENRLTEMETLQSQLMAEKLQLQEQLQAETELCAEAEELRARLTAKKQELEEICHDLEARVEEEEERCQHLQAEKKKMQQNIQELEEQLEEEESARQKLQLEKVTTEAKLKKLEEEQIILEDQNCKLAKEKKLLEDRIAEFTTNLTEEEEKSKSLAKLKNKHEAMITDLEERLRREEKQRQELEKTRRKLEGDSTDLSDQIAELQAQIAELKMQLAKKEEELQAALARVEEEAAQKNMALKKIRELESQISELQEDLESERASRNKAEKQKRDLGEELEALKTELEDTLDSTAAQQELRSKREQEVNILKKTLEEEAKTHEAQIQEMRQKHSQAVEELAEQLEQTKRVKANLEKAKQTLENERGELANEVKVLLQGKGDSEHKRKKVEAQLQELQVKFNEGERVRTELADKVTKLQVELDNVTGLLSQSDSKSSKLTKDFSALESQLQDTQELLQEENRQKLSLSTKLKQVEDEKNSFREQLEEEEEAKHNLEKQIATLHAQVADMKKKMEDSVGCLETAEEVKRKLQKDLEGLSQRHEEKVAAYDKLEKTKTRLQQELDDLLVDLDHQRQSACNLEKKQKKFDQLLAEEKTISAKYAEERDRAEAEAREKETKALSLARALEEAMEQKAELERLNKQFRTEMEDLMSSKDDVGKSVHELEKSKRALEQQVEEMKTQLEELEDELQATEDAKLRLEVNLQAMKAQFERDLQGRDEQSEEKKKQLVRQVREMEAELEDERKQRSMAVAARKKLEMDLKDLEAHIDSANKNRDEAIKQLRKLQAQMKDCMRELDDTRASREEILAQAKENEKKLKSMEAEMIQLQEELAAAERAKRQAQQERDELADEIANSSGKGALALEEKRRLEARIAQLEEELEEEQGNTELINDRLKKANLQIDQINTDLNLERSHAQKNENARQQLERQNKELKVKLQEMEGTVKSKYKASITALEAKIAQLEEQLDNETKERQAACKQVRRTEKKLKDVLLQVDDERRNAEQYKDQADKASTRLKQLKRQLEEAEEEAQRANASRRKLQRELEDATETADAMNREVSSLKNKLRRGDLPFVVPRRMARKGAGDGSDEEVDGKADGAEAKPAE
# runDescription: actomyosin steady state ATPase measurement, NM2A
# Type: biochemical
# experimentalSetup: read-out: % inhibition at 5 μM (or 10 μM if racemate) NM2A; 5 μM (10 μM if racemate); ATPase activity
recordedMetric: inhibition at 5 µM (%)
Answers are plain numbers, in %.

Completed entries (count: 2):
compound	inhibition at 5 µM [%]
Cc1cc2c(s1)N=C1N(c3cccs3)CC[C@@]1(O)C2=O	37
Cc1cc2c(s1)N=C1N(c3ccccc3)CCC1(O)C2=O (stereo not drawn)	26

Please look at the following compound next.
Recorded inhibition at 5 µM (compound `N#Cc1ccc(N2CC[C@@]3(O)C(=O)c4ccsc4N=C23)cc1` ): 13

* * *

# runDescription: tissue concentrations after intraperitoneal injection into a live rat
# Assay type: in vivo
# experimentalSetup: lung, ip, 6 mg i.p., 15 min, read-out: Concentration of compound 188 in tissue samples (μM) lung
recordedMetric: concentration at 15 min
Answer format reminder: number followed by unit.

Recorded concentration at 15 min (compound O=C1c2ccsc2N=C2N(c3ccc(N4CCOCC4)cc3)CCC12O (stereo not shown) ): 36 µM
